Molecular target: human orexin-1 receptor (Homo sapiens, UniProt O43613)
Sequence (O43613 1-425): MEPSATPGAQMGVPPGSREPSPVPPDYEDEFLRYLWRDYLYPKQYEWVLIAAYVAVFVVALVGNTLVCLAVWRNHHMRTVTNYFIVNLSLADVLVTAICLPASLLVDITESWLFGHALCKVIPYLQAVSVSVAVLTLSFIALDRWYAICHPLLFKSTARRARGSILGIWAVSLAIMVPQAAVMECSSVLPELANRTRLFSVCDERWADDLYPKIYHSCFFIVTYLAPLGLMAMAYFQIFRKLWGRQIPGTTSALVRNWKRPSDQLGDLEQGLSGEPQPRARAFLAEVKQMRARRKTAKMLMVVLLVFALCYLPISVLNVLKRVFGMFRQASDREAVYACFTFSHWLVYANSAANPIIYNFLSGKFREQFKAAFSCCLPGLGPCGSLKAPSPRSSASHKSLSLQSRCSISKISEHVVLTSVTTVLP
Assay: FLIPR intracellular calcium assay, orexin receptor antagonistic activity (OX1)
Details: CHO cells expressing human orexin-1 receptor; agonist 3 nM orexin-A; normalized to on-plate reference; * geomean n = 5, *2 geomean n = 2
ASSAY METRIC: IC50 (nM)

Please review the following examples before continuing.
[[record]]
compound = "CCOc1ccccc1C1OCC(=O)N1Cc1cc(C(F)(F)F)ccc1Cl (stereo not drawn) [Example 12]"
assay_metric = "IC50"
value = 4040

[[record]]
compound = "COc1cccc(OC)c1C1OC(C)(C)C(=O)N1Cc1ccc(Oc2ccccc2)cc1 (stereo not drawn) [Example 50]"
assay_metric = "IC50"
value = 28


(a) CCOc1ccccc1C1OCC(=O)N1Cc1ccc(F)c(Cl)c1 (stereo not drawn) [Example 9]
(b) COc1cccc(OC)c1C1OCC(=O)N1Cc1ccc(OC(F)(F)F)c(Cl)c1 (stereo not drawn) [Example 40]
(c) COc1cccc(OC)c1C1OC(C)(C)C(=O)N1Cc1ccc(Oc2ccccn2)cc1 (stereo not drawn) [Example 91]
(d) COc1cccc(OC)c1C1O[C@@H](C)C(=O)N1Cc1ccc2ccccc2c1 (stereo partly drawn) [Example 66]
Could you please sort these 4 entries by IC50 from high to low? Write the labels in rank order as requested.
a, d, b, c

* * *

target: human orexin-1 receptor (Homo sapiens, UniProt O43613); experiment: FLIPR intracellular calcium assay, orexin receptor antagonistic activity (OX1); details: CHO cells expressing human orexin-1 receptor; agonist 3 nM orexin-A; normalized to on-plate reference; * geomean n = 5, *2 geomean n = 2
pIC50: −log10 of the molar value.
ASSAY METRIC: pIC50

[[record]]
compound = "COc1cccc(OC)c1C1O[C@H](C)C(=O)N1Cc1ccc(OC(F)F)cc1 (some centres unmarked) [Example 52]"
value = 6.14

[[record]]
compound = "CCOc1ccc(CN2C(=O)[C@@H](C)O[C@@H]2c2c(OC)cccc2OC)cc1 [Example 79]"
value = 6.08


(P) COc1cccc(C)c1C1OC(C)(C)C(=O)N1Cc1ccc(OC(F)(F)F)c(Cl)c1 (centres unmarked) [Example 83]
(Q) CCOc1ccccc1C1OCC(=O)N1Cc1cc(Cl)ccc1Cl (centres unmarked) [Example 46]
(R) COCCOc1cccc(OC)c1C1OC(C)(C)C(=O)N1Cc1ccc(Oc2ccccc2)cc1 (centres unmarked) [Example 98]
Could you please sort these 3 entries by pIC50 from high to low? Write the labels in rank order as requested.
P, R, Q
(P: 6.88, R: 6.46, Q: 6.10)

* * *

molecular target: human orexin-1 receptor (Homo sapiens); assay: FLIPR intracellular calcium assay, orexin receptor antagonistic activity (OX1); conditions: CHO cells expressing human orexin-1 receptor; agonist 3 nM orexin-A; normalized to on-plate reference; * geomean n = 5, *2 geomean n = 2
ASSAY METRIC: IC50 (nM)

(A) COc1cccc(OC)c1C1OC(C)(C)C(=O)N1Cc1ccc(OC(F)F)cc1 (centres unmarked)
(B) Cc1cccc(C)c1C1OC(C)(C)C(=O)N1Cc1ccc(OC(F)(F)F)c(Cl)c1 (centres unmarked)
Between the two listed entries A and B , which has its IC50 at the higher number? Write down the label of the entry you select.
B

* * *

target: human orexin-2 receptor (Homo sapiens, UniProt O43614); construct: expressed in transfected cells; host or cells: CHO cells (G418 selection); assay: FLIPR intracellular calcium assay, orexin receptor antagonistic activity (OX2); assay type: cell-based; conditions: CHO cells expressing human orexin-2 receptor; agonist 3 nM orexin-A; normalized to on-plate reference; * geomean n = 5, *2 geomean n = 2
Sequence (O43614 whole entry): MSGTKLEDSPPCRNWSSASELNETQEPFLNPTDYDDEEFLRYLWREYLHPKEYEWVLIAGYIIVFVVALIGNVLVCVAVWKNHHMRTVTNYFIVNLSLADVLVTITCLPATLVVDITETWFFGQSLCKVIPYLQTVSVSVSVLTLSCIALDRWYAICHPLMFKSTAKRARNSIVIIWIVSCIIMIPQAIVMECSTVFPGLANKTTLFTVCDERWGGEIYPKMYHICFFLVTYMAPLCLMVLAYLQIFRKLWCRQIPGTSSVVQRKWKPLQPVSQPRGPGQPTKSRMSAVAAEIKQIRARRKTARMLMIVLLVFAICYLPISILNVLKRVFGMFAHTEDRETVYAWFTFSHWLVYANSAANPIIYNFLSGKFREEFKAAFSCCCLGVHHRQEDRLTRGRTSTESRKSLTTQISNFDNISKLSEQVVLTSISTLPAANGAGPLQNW
pIC50: −log10 of the molar value.
ASSAY METRIC: pIC50

[[record]]
molecule = "COc1cccc(OC)c1C1OCC(=O)N1Cc1c(C)cccc1C (stereo not shown)"
assay_system = "human orexin-2 receptor (Homo sapiens, UniProt O43614)"
assay_metric = "pIC50"
value = 6.33

[[record]]
molecule = "COc1cccc(OC)c1C1OCC(=O)N1Cc1ccc(OC(F)(F)F)cc1 (stereo not shown)"
assay_system = "human orexin-2 receptor (Homo sapiens, UniProt O43614)"
assay_metric = "pIC50"
value = 6.53

[[record]]
molecule = "CCOc1ccc(CN2C(=O)[C@@H](C)O[C@@H]2c2c(OC)cccc2OC)cc1"
assay_system = "human orexin-2 receptor (Homo sapiens, UniProt O43614)"
assay_metric = "pIC50"
value = 6.06

[[record]]
molecule = "CCOc1ccccc1C1OCC(=O)N1Cc1ccc(Cl)c(F)c1 (stereo not shown)"
assay_system = "human orexin-2 receptor (Homo sapiens, UniProt O43614)"
assay_metric = "pIC50"
value = 6.20

[[record]]
molecule = "COc1cccc(OC)c1C1O[C@H](C)C(=O)N1Cc1ccc2ccccc2c1 (stereo partly shown)"
assay_system = "human orexin-2 receptor (Homo sapiens, UniProt O43614)"
assay_metric = "pIC50"
value = 7.19


(a) COc1cccc(OC)c1C1O[C@H](C)C(=O)N1Cc1nc2ccccc2s1 (stereo partly shown)
(b) CCOc1ccccc1C1OCC(=O)N1Cc1c(F)ccc(F)c1Cl (stereo not shown)
Of the pair a and b , name the member with the lesser recorded pIC50. Write down the label of the entry you select.
b

(P) COc1cccc(OC)c1C1OC(C)(C)C(=O)N1Cc1ccc2ccccc2c1 (stereo not shown)
(Q) COc1cccc(OC)c1C1OCC(=O)N1Cc1ccc(OCC2CC2)cc1 (stereo not shown)
(R) CCCOc1ccc(CN2C(=O)COC2c2c(OC)cccc2OC)cc1 (stereo not shown)
(S) CCOc1ccccc1C1OCC(=O)N1Cc1cc(C(F)(F)F)cc(Cl)c1F (stereo not shown)
(T) COc1cccc(F)c1C1OC(C)(C)C(=O)N1Cc1ccc(Oc2ccccc2)cc1 (stereo not shown)
Arrange the 5 molecules by rising pIC50, starting with the smallest. Write the labels in rank order as requested.
S, Q, P, R, T

(1) COc1cccc(OC)c1C1OC(C)(C)C(=O)N1Cc1ccc(OC(F)(F)F)cc1 (stereo not shown)
(2) Cc1cccc(C)c1C1OC(C)(C)C(=O)N1Cc1ccc(OC(F)(F)F)c(Cl)c1 (stereo not shown)
Of the pair 1 and 2 , name the member with the lesser recorded pIC50. Write down the label of the entry you select.
1
(1: 6.80, 2: 7.06)

(I) COc1cccc(OC)c1C1OC(C)(C)C(=O)N1Cc1ccc(SC(F)(F)F)cc1 (stereo not shown)
(II) CCCOc1ccc(CN2C(=O)[C@@H](C)OC2c2c(OC)cccc2OC)cc1 (stereo partly shown)
(III) CCOc1ccccc1C1OCC(=O)N1Cc1ccc(F)c(C)c1 (stereo not shown)
(IV) COc1cccc(OCCCO)c1C1OC(C)(C)C(=O)N1Cc1ccc(Oc2ccccc2)cc1 (stereo not shown)
Could you please sort these 4 entries by pIC50 from high to low? Write the labels in rank order as requested.
II, IV, I, III

(a) COCCOc1cccc(OC)c1C1OC(C)(C)C(=O)N1Cc1ccc(Oc2ccccc2)cc1 (stereo not shown)
(b) COc1cccc(OC)c1C1OC(C)(C)C(=O)N1Cc1nc2ccccc2s1 (stereo not shown)
(c) COc1cccc(OC)c1C1OCC(=O)N1Cc1ccc(OC(F)F)cc1 (stereo not shown)
Arrange the 3 molecules by rising pIC50, starting with the smallest. Write the labels in rank order as requested.
a, b, c

(A) CCOc1ccccc1C1OCC(=O)N1Cc1c(Cl)cccc1Cl (stereo not shown)
(B) COc1cccc(OC)c1C1OC(C)(C)C(=O)N1Cc1ccc(OC(F)(F)F)c(Cl)c1 (stereo not shown)
(C) CCOc1ccccc1C1OCC(=O)N1Cc1ccc(OC)cc1 (stereo not shown)
(D) CCOc1ccccc1C1OCC(=O)N1Cc1ccc(F)c(Cl)c1 (stereo not shown)
(E) COc1cccc(OC)c1C1OCC(=O)N1Cc1ccc(OC(F)(F)F)c(Cl)c1 (stereo not shown)
Arrange the 5 molecules by rising pIC50, starting with the smallest. Write the labels in rank order as requested.
A, C, B, D, E
(A: 6.10, C: 6.45, B: 6.88, D: 7.10, E: 7.54)

(I) CCOc1ccccc1C1OCC(=O)N1Cc1cc(C)ccc1C(F)(F)F (stereo not shown)
(II) CCOc1ccccc1C1OCC(=O)N1Cc1ccc(C(F)(F)F)cc1 (stereo not shown)
(III) COc1ccc(CN2C(=O)C(C)(C)OC2c2c(OC)cccc2OC)cc1 (stereo not shown)
Arrange the 3 molecules by rising pIC50, starting with the smallest. Write the labels in rank order as requested.
III, I, II
(III: 5.64, I: 6.18, II: 6.64)

(1) CCOc1ccccc1C1OCC(=O)N1Cc1ccc(Cl)cc1Cl (stereo not shown)
(2) COc1cccc(OC)c1C1OC(C)(C)C(=O)N1Cc1ccc(Oc2ccccn2)cc1 (stereo not shown)
(3) COc1cccc(OC)c1C1OC(C)(C)C(=O)N1Cc1ccc(Oc2ccccc2)nc1 (stereo not shown)
Arrange the 3 molecules by rising pIC50, starting with the smallest. Write the labels in rank order as requested.
1, 2, 3
